biological target: Squalene synthase (Rattus norvegicus); test: Inhibition of SQS in rat liver microsomes assessed as reduction in [3H]FPP conversion to squalene preincubated for 10 mins followed by [3H]FPP addition and measured after 10 mins by scintillation counting method
Sequence (Q02769 whole entry): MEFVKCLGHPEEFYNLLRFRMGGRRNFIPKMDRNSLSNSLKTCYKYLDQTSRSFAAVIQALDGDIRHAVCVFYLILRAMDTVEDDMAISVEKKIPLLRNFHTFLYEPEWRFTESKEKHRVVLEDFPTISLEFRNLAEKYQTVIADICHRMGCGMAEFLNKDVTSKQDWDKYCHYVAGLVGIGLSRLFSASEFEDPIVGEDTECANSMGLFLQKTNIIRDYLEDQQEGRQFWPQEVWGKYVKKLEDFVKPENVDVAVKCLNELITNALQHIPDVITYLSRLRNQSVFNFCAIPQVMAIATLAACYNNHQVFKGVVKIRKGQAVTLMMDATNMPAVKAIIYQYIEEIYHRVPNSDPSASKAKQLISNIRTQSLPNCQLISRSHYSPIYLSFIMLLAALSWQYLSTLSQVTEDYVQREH
Recorded IC50 by entry
quantityKind: IC50 (µM)

| compound | quantityKind | comparisonSymbol | observedMeasurement |
| --- | --- | --- | --- |
| CN1C=C(c2ccc(-c3ccccc3)cc2)OC2CCCCC21 (centres undefined) | IC50 | = | 42 |
| COc1ccc2cc(-c3ccc(C4(OCCCS)CN(C)CCO4)cc3)ccc2c1 (centres undefined) | IC50 | = | 0.16 |
| COc1ccc2cc(-c3ccc(C4(OCCCO[N+](=O)[O-])CN(C)CCO4)cc3)ccc2c1 (centres undefined) | IC50 | = | 16.1 |
| CN1CCSC(c2ccc(-c3ccccc3)cc2)C1 (centres undefined) | IC50 | = | 15 |
| CN1CCSC(c2ccc3ccccc3c2)C1 (centres undefined) | IC50 | = | 25.2 |
| CN1CCOC(c2ccc(-c3ccccc3)cc2)C1 (centres undefined) | IC50 | > | 100 |
| c1ccc(-c2ccc(C3CN4CCCCC4CO3)cc2)cc1 (centres undefined) | IC50 | = | 7.5 |
| COc1ccc2cc(-c3ccc(C4(OCCCO)CN(C)CCO4)cc3)ccc2c1 (centres undefined) | IC50 | = | 29.4 |
| CN1CCOC(OCCCO)(c2ccc(-c3ccccc3)cc2)C1 (centres undefined) | IC50 | = | 24.9 |
| CN1CC(c2ccc(-c3ccccc3)cc2)OC2CCCCC21 (centres undefined) | IC50 | = | 20.8 |
| CN1CCOC(OCCCO)(c2ccc(-c3ccc4ccccc4c3)cc2)C1 (centres undefined) | IC50 | = | 6.2 |
| CN1CCOC(OCCCS)(c2ccc(-c3ccccc3)cc2)C1 (centres undefined) | IC50 | = | 2.7 |
| CN1CCOC(OCCCO[N+](=O)[O-])(c2ccc(-c3ccc4ccccc4c3)cc2)C1 (centres undefined) | IC50 | = | 0.51 |
| Br.CN1CCOC(OCCCS)(c2ccc(-c3ccc4ccccc4c3)cc2)C1 (centres undefined) | IC50 | = | 0.014 |
